Biological target: IDH1 R132H (Homo sapiens, UniProt O75874, R132H)
Sequence (O75874 whole entry R132H): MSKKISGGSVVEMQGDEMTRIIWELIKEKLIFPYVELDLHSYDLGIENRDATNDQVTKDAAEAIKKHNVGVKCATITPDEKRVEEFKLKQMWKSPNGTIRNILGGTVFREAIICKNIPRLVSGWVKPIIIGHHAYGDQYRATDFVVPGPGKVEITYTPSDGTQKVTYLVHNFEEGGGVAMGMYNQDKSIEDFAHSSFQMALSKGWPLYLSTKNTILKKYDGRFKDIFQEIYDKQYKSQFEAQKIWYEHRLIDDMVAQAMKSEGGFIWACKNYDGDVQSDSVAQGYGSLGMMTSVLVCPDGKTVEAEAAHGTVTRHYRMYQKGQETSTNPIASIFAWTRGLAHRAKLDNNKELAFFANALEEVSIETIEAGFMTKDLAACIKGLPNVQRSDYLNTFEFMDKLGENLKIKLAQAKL
Experiment: Assay for IDH1 R132H inhibitors (NADPH/aKG, resazurin detection)
Type: biochemical
Details: Table 3; enzyme assay, 50 minutes at room temperature; read-out: IC50 (IDH1 R132H Inhibition)
Outcome measure: IC50

// below: answered compounds
[[record]]
compound = "CCOc1ccccc1-c1cc(C#N)c(N2CCN(C(=O)c3ccco3)C[C@@H]2C)nc1C(C)C [Compound 184]"
observed_value = "1 to 5 µM"

[[record]]
compound = "CC[C@@H]1CN(c2nc(C(C)C)c(-c3ccccc3)cc2C#N)CCN1C(=O)Cc1cccs1 [Compound 174]"
observed_value = "1 to 5 µM"


[ask] Look at this compound and give its reported IC50. COCCC(=O)N1CCN(c2nc(C(C)C)c(-c3ccc(C(F)(F)F)cc3)cc2C#N)C[C@H]1C [Compound 189]
[reply] 1 to 5 µM

[ask] How about CC1CN(c2nc(C3CCCCC3)cc(-c3ccccc3)c2C#N)CCN1C(=O)c1ccoc1 (centres unmarked) [Compound 138] ?
[reply] 1 to 5 µM

[ask] Also need CC(C)c1cc(-c2ccccc2)c(C#N)c(N2CCN(C(=O)c3ccco3)CC2c2ccccc2)n1 (centres unmarked) [Compound 167] , thanks.
[reply] 1 to 5 µM

[ask] How about this compound: COCCC(=O)N1CCN(c2nc(C(C)C)c(-c3cncc4ccccc34)cc2C#N)C[C@H]1C [Compound 234]
[reply] ≤ 1 µM

[ask] Another: COCCC(=O)N1CCN(c2nc(C(C)C)c(-c3ccc(C)cc3)cc2C#N)C[C@H]1C [Compound 198]
[reply] 1 to 5 µM

[ask] Ok, now CC(C)c1nc(N2C[C@@H](C)N(C(=O)c3ccoc3)[C@@H](C)C2)c(C#N)cc1-c1ccccc1 [Compound 141]
[reply] 5 to 15 µM

[ask] Again, but for CC(C)c1cc(-c2ccccc2)c(C#N)c(N2CCN(C(=O)c3ccco3)C(C)C2)n1 (centres unmarked) [Compound 107]
[reply] 1 to 5 µM

[ask] Repeat for the following compound: COc1ccccc1-c1cc(C(C)C)nc(N2CCN(C(=O)c3ccoc3)CC2)c1C#N [Compound 113]
[reply] 5 to 15 µM

[ask] // next record Cc1cccc(-c2cc(C#N)c(N3CCN(C(=O)c4ccoc4)[C@H](C)C3)nc2C(C)C)c1 [Compound 191]
[reply] ≤ 1 µM

[ask] Can you check COCCC(=O)N1CCN(c2nc(C(C)C)c(-c3ccc(OC)cc3)cc2C#N)C[C@H]1C [Compound 214] next?
[reply] 1 to 5 µM

[ask] Further, for CC(C)c1nc(N2CCN(C(=O)Cc3cccs3)[C@H](C)C2)c(C#N)cc1-c1ccccc1 [Compound 165] ?
[reply] 1 to 5 µM
